Origin of measurements: patent US20210145976A1

target: T1, recombinant biotinylated CD71 extracellular domain (Sino Biologics) with an N-terminal 6His tag (human, UniProt P02786 89-760, biotinylated (sites not given)); experiment: screening ELISA
T1 construct: extracellular domain; also called hCD71; huCD71
T1 sequence (P02786 other isoform, or with tags, fused parts or gaps): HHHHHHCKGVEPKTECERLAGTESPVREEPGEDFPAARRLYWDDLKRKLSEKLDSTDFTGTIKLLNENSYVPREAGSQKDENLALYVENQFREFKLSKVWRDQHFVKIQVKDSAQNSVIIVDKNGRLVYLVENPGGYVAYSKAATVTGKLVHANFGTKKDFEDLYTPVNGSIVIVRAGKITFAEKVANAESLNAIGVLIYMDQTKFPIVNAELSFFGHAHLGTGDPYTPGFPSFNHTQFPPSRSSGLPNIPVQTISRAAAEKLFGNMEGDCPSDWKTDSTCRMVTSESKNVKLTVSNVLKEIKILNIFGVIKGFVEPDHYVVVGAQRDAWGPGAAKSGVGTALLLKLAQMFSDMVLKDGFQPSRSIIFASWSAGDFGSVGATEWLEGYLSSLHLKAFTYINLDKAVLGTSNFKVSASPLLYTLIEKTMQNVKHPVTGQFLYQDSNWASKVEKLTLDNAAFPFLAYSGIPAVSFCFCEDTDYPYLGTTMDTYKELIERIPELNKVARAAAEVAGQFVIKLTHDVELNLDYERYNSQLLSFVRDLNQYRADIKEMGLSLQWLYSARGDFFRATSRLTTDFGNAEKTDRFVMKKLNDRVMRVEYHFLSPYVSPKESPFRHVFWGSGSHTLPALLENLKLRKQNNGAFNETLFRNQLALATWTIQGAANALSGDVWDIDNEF
The binders listed here are annotated with their hCD71.
Form rule: numeric answer, no unit written next to it.

These solved cases illustrate the format of a correct answer.
SEQ ID NO 89 (designed binder, FN3 domain) MLPAPKNLVVSRVTEDSARLSWTAPDAAFDSFHISYEETPVVGEAIYLRVPGSERSYDLTGLKPGTEYTVAIHGVKGGRESTPLIAPFTT; 3.44e+06
SEQ ID NO 129 (designed binder, FN3 domain) MLPAPKNLVVSRVTEDSARLSWTAPDAAFDSFDIEYYEAVGAGEAIVLTVPGSERSYDLTGLKPGTEYTVGIYGVKGGWLSKPLSVIFTT; 2.31e+06
SEQ ID NO 302 (designed binder, FN3 domain) MLPAPKNLVVSRVTEDSARLSWTAPDAAFDSFDIYYPEYYDRGEAIVLTVPGSERSYDLTGLKPGTEYTVYIDGVKGGGGSGPLSAIFTT; 2.67e+06
SEQ ID NO 208 (designed binder, FN3 domain) MLPAPKNLVVSRVTEDSARLSWTAPDAAFDSFGIVYREPYVGGEAIVLTVPGSERSYDLTGLKPGTEYGVPIPGVKGGYDSGPLSAIFTT; 2.29e+06
SEQ ID NO 132 (designed binder, FN3 domain) MLPAPKNLVVSRVTEDSARLSWTAPDAAFDSFTIVYAEVTYDGEAIVLTVPGSERSYDLTGLKPGTEYDVFIEGVKGGELSWPLSAIFTT; 2.75e+06
SEQ ID NO 285 (designed binder, FN3 domain) MLPAPKNLVVSRVTEDSARLSWTAPDAAFDSFLIPYAETSPSGEAIVLTVPGSERSYDLTGLKPGTEYSVLIHGVKGGDYSSPLSAIFTT; 2.44e+06

Requested read-out: hCD71. Entry: SEQ ID NO 292 (designed binder, FN3 domain) MLPAPKNLVVSRVTEDSARLSWTAPDAAFDSFDIAYWELTPSGEAIELLVPGSERSYDLTGLKPGTEYRVDIIGVKGGFISEPLGATFTT 2.62e+06

What do we get for SEQ ID NO 187 (designed binder, FN3 domain) MLPAPKNLVVSRVTEDSARLSWTAPDAAFDSFVIEYFEFVGYGEAIVLTVPGSERSYDLTGLKPGTEYSVGIYGVKGGKLSPPLSAIFTT ? 3.06e+06

What do we get for SEQ ID NO 130 (designed binder, FN3 domain) MLPAPKNLVVSRVTEDSARLSWTAPDAAFDSFHIPYVEAEVPGEAIQLHVPGSERSYDLTGLKPGTEYYVEIWGVKGGFYSPPLIAEFTT ? 1.45e+06

What do we get for SEQ ID NO 111 (designed binder, FN3 domain) MLPAPKNLVVSRVTEDSARLSWTAPDAAFDSFWIYYYESVGTGEAIVLTVPGSERSYDLTGLKPGTEYFVDISGVKVGTYSLPLSAIFTT ? 2.4e+06

What do we get for SEQ ID NO 300 (designed binder, FN3 domain) MLPAPKNLVVSRVTEDSARLSWTAPDAAFDSFFIGYLEPQPPGEAIVLTVPGSERSYDLTGLKPGTEYNVTIHGVKGGTPSMPLSAIFTT ? 2.31e+06

What do we get for SEQ ID NO 272 (designed binder, FN3 domain) MLPAPKNLVVSRVTEDSARLSWTAPDAAFDSFGIPYAESTPTGEAIVLTVPGSERSYDLTGLKPGTEYSVLIHGVKGGHLSDPLSAIFTT ? 1.78e+06

What do we get for SEQ ID NO 169 (designed binder, FN3 domain) MLPAPKNLVVSRVTEDSARLSWTAPDAAFDSFFIGYLEPQPPGEAIVLTVPGSERSYDLTGLKPGTEYNVTIQGVKGGFPSVPLSAIFTT ? 2.85e+06

What do we get for SEQ ID NO 115 (designed binder, FN3 domain) MLPAPKNLVVSRVTEDSARLSWTAPDAAFDSFFIGYLEPQPPGEAIVLTVPGSERSYDLTGLKPGTEYNVTIQGVKGGFPSMPLSAIFTTT ? 2.92e+06

What do we get for SEQ ID NO 238 (designed binder, FN3 domain) MLPAPKNLVVSRVTEDSARLSWTAPDAAFDSFKIFYQEFGGEAIVLTVPGSERSYDLTGLKPGTEYWVDIYGVKGGYTSSPLSAIFTT ? 2.88e+06
